system.under.test: KRas G12C/Q61H double mutant (Homo sapiens (Human), UniProt P01116, G12C/Q61H)
Sequence (P01116-2 other isoform, or with tags, fused parts or gaps G12C/Q61H): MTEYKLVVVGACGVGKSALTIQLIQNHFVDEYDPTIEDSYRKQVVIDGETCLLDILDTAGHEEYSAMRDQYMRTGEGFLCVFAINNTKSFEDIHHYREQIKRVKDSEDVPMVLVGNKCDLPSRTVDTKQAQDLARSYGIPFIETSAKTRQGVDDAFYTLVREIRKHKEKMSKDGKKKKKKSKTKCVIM
assay.overview: Ras GTP binding domain inhibition assay (labeled GTP)
condition.summary: 20 μM compound; read-out: % Inhibition at 20 μM KRas G12C Q61H
The following compounds are shown together with reported inhibition at 20 µM values.

O=C(c1csc2c(O)nc(-c3ccccn3)nc12)N1CCN(c2ccc(F)cc2F)CC1 [drawing 2760]: 25 to 50%
COc1cc(N2CCN(C(=O)c3csc4c(O)nc(-c5ccccn5)nc34)CC2)cc(OC)c1OC [drawing 2758]: 1 to 25%
O=C(c1csc2c(O)nc(-c3ccccn3)nc12)N1CCOC(c2ccccc2)C1 (centres unmarked) [drawing 2766]: 25 to 50%
COCCN(CCOC)c1nc(-c2ccccn2)nc2scc(C(=O)NCCc3ccc(OC)nc3)c12 [drawing 2792]: 1 to 25%

Identify measured inhibition at 20 µM corresponding to COc1cccc(N2CCN(C(=O)c3csc4c(O)nc(-c5ccccn5)nc34)CC2)c1 [drawing 2713]
51 to 75%

Identify measured inhibition at 20 µM corresponding to O=C(c1csc2c(O)nc(-c3ccccn3)nc12)N1CCNC(c2cn[nH]c2)C1 (centres unmarked) [drawing 2858]
51 to 75%

Identify measured inhibition at 20 µM corresponding to Nc1nc(-c2ccccn2)nc2ccsc12 [drawing 2834]
25 to 50%

Identify measured inhibition at 20 µM corresponding to CC1CN(c2ccccc2)CCN1C(=O)c1csc2c(O)nc(-c3ccccn3)nc12 (centres unmarked) [drawing 2761]
76 to 100%
